- measurement protocol: Plasma pharmacokinetics and urinary elimination after single oral and intravenous administration
- Format: in vivo, FVB mice
- test parameters: FVB, mouse, plasma, iv; i.v. 30 mg/Kg
recorded endpoint: AUC(0-inf) (ng·h/mL)
One number for each entry, in ng·h/mL.

COCCNC(=N)NCCC[C@H](N)C(=O)NS(C)(=O)=O 21600

With those in mind, consider the next compound.
Prompt line: # lookup: AUC(0-inf) of "COCCNC(=N)NCCC[C@H](N)c1noc(=O)[nH]1"
Response line: 9260

----------
- measurement protocol: Plasma pharmacokinetics and urinary elimination after acute and chronic intraperitoneal administration
- Assay type: in vivo, FVB mice
- test parameters: FVB, mouse, plasma, ip; i.p. 30 mg/Kg/day for three weeks, chronic (day 21)
recorded endpoint: Cmax at 21 days (µg/mL)
Give bare numbers, in µg/mL.

Prompt line: Form field: reported Cmax at 21 days of "COCCNC(=N)NCCC[C@H](N)C(=O)NS(C)(=O)=O"
Response line: 33.6

----------
- measurement protocol: Urinary metabolites in 24 h urine by HPLC-MS/MS
- Type: in vivo, FVB mice
- test parameters: after intravenous ZST152, total dose 1.410 mg, mouse #1, 24 h urine
recorded endpoint: % of Dose recovered in urine

These recorded examples may help you get a feel for the data.
molecule	% of Dose recovered in urine
COCCNC(=N)NCCCCO [M3]	0.19%
COCCNC(=N)NCCCC=O [M2]	9.05%
COCCNC(=N)NCCC[C@H](N)c1noc(=O)[nH]1 [ZST152]	10.5%
COCCNC(=N)N [M1]	0.039%
COCCNC(=N)NCCCC(=O)O [M4]	6.6%

Please state % of Dose recovered in urine for every molecule in the list that follows.
1. COCCNC(=N)NCCC[C@H](N)C=NO [M6]
2. COCCNC(=N)NCCC[C@H](N)C(=O)O [M7]

Response line:
1: 0.10%; 2: 0.13%

----------
- measurement protocol: Urinary metabolites in 24 h urine by HPLC-MS/MS
- Type: in vivo, FVB mice
- test parameters: after oral ZST316, total dose 1.308 mg, mouse #3, 24 h urine
Please respond with reported % of Dose recovered in urine for every item in the list.
One number for each entry, in %.

Completed entries (count: 5):
COCCNC(=N)NCCC[C@H](O)C(=O)NC(C)=O 5.4
COCCNC(=N)NCCC[C@H](N)C(=O)O 76
COCCNC(=N)NCCCC(=O)O 8.2
COCCNC(=N)N 0.21
COCCNC(=N)NCCC[C@H](N)C(=O)NS(C)(=O)=O 2.2

Kindly consider the entry below.
Prompt line: Request the reported % of Dose recovered in urine associated with "COCCNC(=N)NCCC[C@H](O)C(=O)O"
Response line: 4.1

----------
- measurement protocol: Urinary metabolites in 24 h urine by HPLC-MS/MS
- Type: in vivo, FVB mice
- test parameters: after intravenous ZST316, total dose 1.326 mg, mouse #1, 24 h urine
recorded endpoint: Amount Recovered in urine (µg)
Numbers only, in µg.

Worked cases, answers included:
COCCNC(=N)NCCC[C@H](N)C(=O)NS(C)(=O)=O 41.2
COCCNC(=N)NCCC[C@H](N)C(=O)O 86.1
COCCNC(=N)NCCC[C@H](O)C(=O)NC(C)=O 4.28
COCCNC(=N)NCCCC(=O)O 8.71
COCCNC(=N)NCCC[C@H](O)C(=O)O 4.87

Prompt line: Query (compound): "COCCNC(=N)N" ; field requested: Amount Recovered in urine
Response line: 0.23

Source: paper PMC8840040
